target: GCS enzyme (glucosylceramide synthase) contained within Golgi preparations isolated from human A375 malignant melanoma skin cells (Homo sapiens (Human), UniProt Q16739); experiment: UDP-Glo glucosylceramide synthase biochemical assay; conditions: 1.5 μg crude golgi preparation from A375 cells; C6 ceramide and UDP-glucose at 2×Km; 20 h incubation at room temperature; UDP detected by luminescence
Sequence (Q16739 whole entry): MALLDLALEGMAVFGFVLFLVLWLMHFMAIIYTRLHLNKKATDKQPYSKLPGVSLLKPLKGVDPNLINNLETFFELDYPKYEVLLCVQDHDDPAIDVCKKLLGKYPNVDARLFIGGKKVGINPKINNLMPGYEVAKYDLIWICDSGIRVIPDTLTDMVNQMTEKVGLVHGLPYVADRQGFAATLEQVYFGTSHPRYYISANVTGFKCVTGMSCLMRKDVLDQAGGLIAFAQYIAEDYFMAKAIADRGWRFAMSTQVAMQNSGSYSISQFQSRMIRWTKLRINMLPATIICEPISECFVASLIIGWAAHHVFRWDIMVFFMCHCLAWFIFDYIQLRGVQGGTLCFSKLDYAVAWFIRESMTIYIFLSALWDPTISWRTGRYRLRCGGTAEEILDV
pEC50: −log10 of the molar value.
Could you label it true if measured pEC50 is 10 or higher, and false otherwise?

>  <molecule>
CCCOc1ccccc1-c1cccc2cc(C(=O)NC3CNCCC3(F)F)oc12 (single isomer, unassigned)

>  <classAssignment>
false

$$$$

Record CC(C)Oc1ccc(C#N)cc1-c1cc(F)cc2cc(C(=O)NC(C)(C)CO)oc12 ; criterion: pEC50 no lower than 10. Met? false

Next molecule: O=C(NC1CCC(O)CC1F)c1cc2cccc(-c3ccccc3OCC(F)(F)F)c2o1 (centres unmarked) false

Try this molecule next: CC(C)Oc1ccc(C#N)cc1-c1cc(Cl)cc2cc(C(=O)N[C@H]3C[C@@H](O)C3)oc12 true
